Reported values of IC50 for individual entries
- target_of_assay: PD-1/PD-L1 complex (Homo sapiens, UniProt Q9NZQ7)
- Sequence (Q9NZQ7 19-238 limits assumed, one chain of several): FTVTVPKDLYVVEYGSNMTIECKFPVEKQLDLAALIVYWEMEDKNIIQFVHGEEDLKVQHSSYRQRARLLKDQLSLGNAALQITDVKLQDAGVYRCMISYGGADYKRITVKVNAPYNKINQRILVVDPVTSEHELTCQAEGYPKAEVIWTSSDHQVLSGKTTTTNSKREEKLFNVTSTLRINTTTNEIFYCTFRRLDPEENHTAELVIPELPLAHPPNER
- test_conditions: read-out: IC50 (nM), SAR toward PD-L1 based on the HTRF methodology; 5 nM hPD-L1, 50 nM hPD-1; 10f, 10l, 10p IC50 measured with 6 concentrations; remaining compounds estimated from scouting mode (50 and 5 nM) by translation of average Hill's fits
observation_type: IC50

>>> result("Cc1c(/C=C/n2nnnc2C(NCc2ccncc2)C2CC2)cccc1-c1ccccc1 (centres unmarked) [10d]")
"1770 nM"
>>> result("Cc1c(/C=C/n2nnnc2CNCCCCO)cccc1-c1ccc2c(c1)OCCO2 [10o]")
"1130 nM"
>>> result("Cc1c(/C=C/n2nnnc2CNCCCCCO)cccc1-c1ccc2c(c1)OCCO2 [10n]")
"2850 nM"
>>> result("Cc1c(/C=C/n2nnnc2C(C)NCCCO)cccc1-c1ccccc1 (centres unmarked) [10g]")
"1800 nM"
>>> result("Cc1c(/C=C/n2nnnc2CN2CCOC2)cccc1-c1ccccc1 [10k]")
"1000 nM"
>>> result("Cc1c(/C=C/n2nnnc2C(C)NCCCO)cccc1-c1ccc2c(c1)OCCO2 (centres unmarked) [10p]")
"254 nM"
>>> result("Cc1c(/C=C/n2nnnc2CN2CCCOC2)cccc1-c1ccc2c(c1)OCCO2 [10r]")
"1130 nM"
>>> result("Cc1c(/C=C/n2nnnc2CNCCCCCO)cccc1-c1ccccc1 [10j]")
"1840 nM"
>>> result("CCNCc1nnnn1/C=C/c1cccc(-c2ccccc2)c1C [10f]")
"408 nM"
>>> result("Cc1c(/C=C/n2nnnc2CN2CCCCOC2)cccc1-c1ccccc1 [10i]")
"460 nM"
>>> result("Cc1c(/C=C/n2nnnc2CN2CCCOC2)cccc1-c1ccccc1 [10l]")
"944 nM"

Reference source: paper PMC11042242
